Below, each entry is listed with its recorded viability, T/C.
System: 755483-174-R-J1-PDC complex spheroid growth, percent test/control;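 further: spheroids exposed to compounds for seven days before readout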
Experiment: Anticancer human tumor 755483-174-R-J1-PDC patient-derived rhabdomyosarcoma cell line growth inhibition [Asc]
Settings: second compound 10 µM; first compound 0.316 µM; active compounds read low
Text: Multicellular complex tumor spheroid response to apoptosis pathway targeting inhibitors Alrizomadlin, Pelcitoclax, and Dasminapant in combination with a variety of drugs and investigational agents in selected tumor cell lines […] Compounds. […] If the clinical Cmax for an agent had not been determined, the highest concentration tested was 10 microM. […]
endpoint label: viability, T/C (%)

[
  {
    "compound": "C=C(F)C(=O)N1CCN(c2nc(OCC3CCCN3C)nc3c2CCN(c2cccc4cccc(Cl)c24)C3)CC1CC#N (stereo not drawn) + Cc1c(S(C)(=O)=O)c(-c2cc(F)cc(N3CCN(c4ccc(NS(=O)(=O)c5ccc(NC(CCN6CCC(C(=O)OCCCP(=O)(O)O)CC6)CSc6ccccc6)c(S(=O)(=O)C(F)(F)F)c5)cc4)CC3)c2)c(-c2ccc(Cl)cc2)n1C(C)C",
    "reported measurement": 34
  },
  {
    "compound": "C#Cc1c(F)ccc2cc(O)cc(-c3ncc4c(N5CC6CCC(C5)N6)nc(OCC56CCCN5CC(F)C6)nc4c3F)c12 (stereo not drawn) + Cc1c(S(C)(=O)=O)c(-c2cc(F)cc(N3CCN(c4ccc(NS(=O)(=O)c5ccc(NC(CCN6CCC(C(=O)OCCCP(=O)(O)O)CC6)CSc6ccccc6)c(S(=O)(=O)C(F)(F)F)c5)cc4)CC3)c2)c(-c2ccc(Cl)cc2)n1C(C)C",
    "reported measurement": 45.4
  },
  {
    "compound": "CCN1CCN(Cc2ccc(Nc3ncc(F)c(-c4cc(F)c5nc(C)n(C(C)C)c5c4)n3)nc2)CC1 + Cc1c(S(C)(=O)=O)c(-c2cc(F)cc(N3CCN(c4ccc(NS(=O)(=O)c5ccc(NC(CCN6CCC(C(=O)OCCCP(=O)(O)O)CC6)CSc6ccccc6)c(S(=O)(=O)C(F)(F)F)c5)cc4)CC3)c2)c(-c2ccc(Cl)cc2)n1C(C)C",
    "reported measurement": 66.9
  },
  {
    "compound": "C=CC(=O)N1CCN(c2nc(=O)n(-c3c(C)ccnc3C(C)C)c3nc(-c4c(O)cccc4F)c(F)cc23)C(C)C1 (stereo not drawn) + Cc1c(S(C)(=O)=O)c(-c2cc(F)cc(N3CCN(c4ccc(NS(=O)(=O)c5ccc(NC(CCN6CCC(C(=O)OCCCP(=O)(O)O)CC6)CSc6ccccc6)c(S(=O)(=O)C(F)(F)F)c5)cc4)CC3)c2)c(-c2ccc(Cl)cc2)n1C(C)C",
    "reported measurement": 50.2
  },
  {
    "compound": "COc1c(OCCCN2CCOCC2)ccc2c3n(c(=NC(=O)c4cnc(N)nc4)nc12)CCN3 + Cc1c(S(C)(=O)=O)c(-c2cc(F)cc(N3CCN(c4ccc(NS(=O)(=O)c5ccc(NC(CCN6CCC(C(=O)OCCCP(=O)(O)O)CC6)CSc6ccccc6)c(S(=O)(=O)C(F)(F)F)c5)cc4)CC3)c2)c(-c2ccc(Cl)cc2)n1C(C)C",
    "reported measurement": 4.21
  },
  {
    "compound": "CNC(C)C(=O)NC1CN(S(=O)(=O)c2cccc(S(=O)(=O)N3CCC4CCC(C(=O)NC(c5ccccc5)c5ccccc5)N4C(=O)C(NC(=O)C(C)NC)C3)c2)CCC2CCC(C(=O)NC(c3ccccc3)c3ccccc3)N2C1=O (stereo not drawn) + Cc1c(S(C)(=O)=O)c(-c2cc(F)cc(N3CCN(c4ccc(NS(=O)(=O)c5ccc(NC(CCN6CCC(C(=O)OCCCP(=O)(O)O)CC6)CSc6ccccc6)c(S(=O)(=O)C(F)(F)F)c5)cc4)CC3)c2)c(-c2ccc(Cl)cc2)n1C(C)C",
    "reported measurement": 16.2
  },
  {
    "compound": "O=C(c1ccc(F)c(F)c1Nc1ccc(I)cc1F)N1CC(O)([C@@H]2CCCCN2)C1 + Cc1c(S(C)(=O)=O)c(-c2cc(F)cc(N3CCN(c4ccc(NS(=O)(=O)c5ccc(NC(CCN6CCC(C(=O)OCCCP(=O)(O)O)CC6)CSc6ccccc6)c(S(=O)(=O)C(F)(F)F)c5)cc4)CC3)c2)c(-c2ccc(Cl)cc2)n1C(C)C",
    "reported measurement": 11.1
  },
  {
    "compound": "O=C(c1cc(Cc2n[nH]c(=O)c3ccccc23)ccc1F)N1CCN(C(=O)C2CC2)CC1 + Cc1c(S(C)(=O)=O)c(-c2cc(F)cc(N3CCN(c4ccc(NS(=O)(=O)c5ccc(NC(CCN6CCC(C(=O)OCCCP(=O)(O)O)CC6)CSc6ccccc6)c(S(=O)(=O)C(F)(F)F)c5)cc4)CC3)c2)c(-c2ccc(Cl)cc2)n1C(C)C",
    "reported measurement": 24.1
  }
]
